// provenance: the supplement of paper PMC10567573

Quick list: protein stability index per entry.
B1: FBF1 (parent)
chain: FGDSPKAEKRQIGDQEGPRPARST

Variants of: B1
experiment-summary: protein stability index of a GFP-peptide fusion (GPS, HEK-293T) (PSI 1-6); higher = more stable;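 note: lentivirally expressed fusions sorted by FACS into six bins by GFP to DsRed ratio, PSI derived from sequencing read proportions per bin multiplied by bin number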
condition-summary: c terminus: a fixed tail appended

- sequence-text: "FGDSPKAEKRQIGSQEGPRPARST [D14S]"
  protein stability index: 4.84

Lab note: FGDSPKAEKRQISDQEGPRPARST [G13S] gave protein stability index of 4.82

protein stability index reading for FGDSPKAEKRQIGDQEGPRPIRST [A21I] : 4.77

The recorded protein stability index for entry FGDSPKAEKRQIGFQEGPRPARST [D14F] equals 4.65

Item: DGDSPKAEKRQIGDQEGPRPARST [F1D] | protein stability index: 5.81

Please fill in: protein stability index reported for FGDSPKSEKRQIGDQEGPRPARST [A7S] = 5.09
